src = patent US20110118447A1

assay_system: binding partner of C5A (XPA23)
assay_procedure: Biacore K-off
reported_metric: fold difference in affinity vs original (fold)
Field: numeric (fold). Do not append units.

Known results for binders:
Exam item: So what does the record say about fold difference in affinity vs original for C5A (XPA23) VH K31F (antibody, V domains shown) VH: EVQLLESGGGLVQPGGSLRLSCAASGFTFSFYFMFWVRQAPGKGLEWVSVISPSGGMTRYADSVKGRFTISRDNSKNTLYLQMNSLRAEDTAVYYCARVGYGGNSDYWGQGTLVTVSS VL: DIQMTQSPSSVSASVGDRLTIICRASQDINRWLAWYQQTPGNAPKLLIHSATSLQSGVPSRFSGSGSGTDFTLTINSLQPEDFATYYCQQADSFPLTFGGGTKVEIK ?
Marked response: 0.05

Exam item: So what does the record say about fold difference in affinity vs original for C5A (XPA23) VL D28K (antibody, V domains shown) VH: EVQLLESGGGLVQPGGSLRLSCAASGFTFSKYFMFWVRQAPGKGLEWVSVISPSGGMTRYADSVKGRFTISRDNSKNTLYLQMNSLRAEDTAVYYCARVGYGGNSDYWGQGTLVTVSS VL: DIQMTQSPSSVSASVGDRLTIICRASQKINRWLAWYQQTPGNAPKLLIHSATSLQSGVPSRFSGSGSGTDFTLTINSLQPEDFATYYCQQADSFPLTFGGGTKVEIK ?
Marked response: 0.82

Exam item: So what does the record say about fold difference in affinity vs original for C5A (XPA23) VL S50V (antibody, V domains shown) VH: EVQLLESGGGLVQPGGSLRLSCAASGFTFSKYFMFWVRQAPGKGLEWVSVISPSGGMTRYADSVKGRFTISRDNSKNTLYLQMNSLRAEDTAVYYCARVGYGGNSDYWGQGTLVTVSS VL: DIQMTQSPSSVSASVGDRLTIICRASQDINRWLAWYQQTPGNAPKLLIHVATSLQSGVPSRFSGSGSGTDFTLTINSLQPEDFATYYCQQADSFPLTFGGGTKVEIK ?
Marked response: 0.21

Exam item: So what does the record say about fold difference in affinity vs original for C5A (XPA23) VL A91E (antibody, V domains shown) VH: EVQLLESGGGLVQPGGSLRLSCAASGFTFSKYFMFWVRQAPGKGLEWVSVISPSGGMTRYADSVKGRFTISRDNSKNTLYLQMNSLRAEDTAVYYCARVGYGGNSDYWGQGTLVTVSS VL: DIQMTQSPSSVSASVGDRLTIICRASQDINRWLAWYQQTPGNAPKLLIHSATSLQSGVPSRFSGSGSGTDFTLTINSLQPEDFATYYCQQEDSFPLTFGGGTKVEIK ?
Marked response: 0.1

Next:
Exam item: So what does the record say about fold difference in affinity vs original for C5A (XPA23) VL T52K (antibody, V domains shown) VH: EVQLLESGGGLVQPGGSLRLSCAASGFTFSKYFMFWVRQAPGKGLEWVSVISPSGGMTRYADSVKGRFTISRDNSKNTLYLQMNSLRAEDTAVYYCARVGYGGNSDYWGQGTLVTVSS VL: DIQMTQSPSSVSASVGDRLTIICRASQDINRWLAWYQQTPGNAPKLLIHSAKSLQSGVPSRFSGSGSGTDFTLTINSLQPEDFATYYCQQADSFPLTFGGGTKVEIK ?
Marked response: 3.23

Exam item: So what does the record say about fold difference in affinity vs original for C5A (XPA23) VH S30W (antibody, V domains shown) VH: EVQLLESGGGLVQPGGSLRLSCAASGFTFWKYFMFWVRQAPGKGLEWVSVISPSGGMTRYADSVKGRFTISRDNSKNTLYLQMNSLRAEDTAVYYCARVGYGGNSDYWGQGTLVTVSS VL: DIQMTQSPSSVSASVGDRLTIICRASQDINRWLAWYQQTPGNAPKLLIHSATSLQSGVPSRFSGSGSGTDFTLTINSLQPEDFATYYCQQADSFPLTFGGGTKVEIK ?
Marked response: 0.77

Exam item: So what does the record say about fold difference in affinity vs original for C5A (XPA23) VL T52D (antibody, V domains shown) VH: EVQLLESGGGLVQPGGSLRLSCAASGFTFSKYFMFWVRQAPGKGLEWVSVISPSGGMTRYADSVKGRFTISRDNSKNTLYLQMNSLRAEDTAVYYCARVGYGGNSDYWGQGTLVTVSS VL: DIQMTQSPSSVSASVGDRLTIICRASQDINRWLAWYQQTPGNAPKLLIHSADSLQSGVPSRFSGSGSGTDFTLTINSLQPEDFATYYCQQADSFPLTFGGGTKVEIK ?
Marked response: 0.72

Exam item: So what does the record say about fold difference in affinity vs original for C5A (XPA23) VL L96W (antibody, V domains shown) VH: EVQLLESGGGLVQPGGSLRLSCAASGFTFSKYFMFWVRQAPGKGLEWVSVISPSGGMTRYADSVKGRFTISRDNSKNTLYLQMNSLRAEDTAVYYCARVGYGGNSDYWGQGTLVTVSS VL: DIQMTQSPSSVSASVGDRLTIICRASQDINRWLAWYQQTPGNAPKLLIHSATSLQSGVPSRFSGSGSGTDFTLTINSLQPEDFATYYCQQADSFPWTFGGGTKVEIK ?
Marked response: 4.49

Exam item: So what does the record say about fold difference in affinity vs original for C5A (XPA23) VL R31I (antibody, V domains shown) VH: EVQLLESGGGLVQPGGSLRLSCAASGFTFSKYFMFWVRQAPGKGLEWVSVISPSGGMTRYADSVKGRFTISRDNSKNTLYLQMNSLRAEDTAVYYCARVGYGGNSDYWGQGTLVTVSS VL: DIQMTQSPSSVSASVGDRLTIICRASQDINIWLAWYQQTPGNAPKLLIHSATSLQSGVPSRFSGSGSGTDFTLTINSLQPEDFATYYCQQADSFPLTFGGGTKVEIK ?
Marked response: 0.68

Exam item: So what does the record say about fold difference in affinity vs original for C5A (XPA23) VH Y32N (antibody, V domains shown) VH: EVQLLESGGGLVQPGGSLRLSCAASGFTFSKNFMFWVRQAPGKGLEWVSVISPSGGMTRYADSVKGRFTISRDNSKNTLYLQMNSLRAEDTAVYYCARVGYGGNSDYWGQGTLVTVSS VL: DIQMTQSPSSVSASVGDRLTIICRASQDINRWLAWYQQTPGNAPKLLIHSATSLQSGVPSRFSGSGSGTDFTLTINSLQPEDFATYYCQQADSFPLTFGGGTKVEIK ?
Marked response: 0.04
